target: T1, hCMV gH, gL, UL128, UL130 and UL131A co-expressed in HEK293T cells (human cytomegalovirus, UniProt P12824 24-743; P16832 31-278; P16837 1-171; P16772 1-214); experiment: cell cross-competition, 20x excess; competitor 6G4-biotin
T1 construct: whole, on cells; also called gH + gL + UL128 + UL130 + UL131A; gH/gL/UL128-130 complex
ENDPOINT_LABEL: Inhibition of binding (%)

binder="10F7 (antibody, V domains shown, human IgG mAb; also called 10F7-biotin) VH: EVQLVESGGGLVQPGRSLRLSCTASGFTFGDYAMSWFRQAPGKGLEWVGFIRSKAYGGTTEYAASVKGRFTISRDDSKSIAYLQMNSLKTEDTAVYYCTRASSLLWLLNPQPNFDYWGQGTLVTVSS VL: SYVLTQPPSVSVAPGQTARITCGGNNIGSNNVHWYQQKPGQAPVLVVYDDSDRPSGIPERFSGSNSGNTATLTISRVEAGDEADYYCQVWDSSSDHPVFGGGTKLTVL" value=0%
binder="10P3 (antibody, V domains shown, human IgG mAb) VH: EVQLVESGGGLVRPGGSLRLSCAASGFTFHNYRMNWVRQAPGKGLEWVANIKQDGSEKSYVDSVRGRFTTSRDNSKNSLYLQINSLRAEDTAVYYCARGEGYTYGVVYSYSAMDVWGQGTTVIVSS VL: SYELTQPPSVSVSPGQTARITCSGNVLPNQYASWYQQKPGQAPVLVIYKDTERPSGIPGRFSGSSSGTTVTLTISGVQAEDEADYYCQSADSSGADYVFGTGTKVTVL" value=0%
binder="7I13 (antibody, V domains shown, human IgG mAb) VH: QVQLVESGGGVVQPGRSLRLSCAASGFTFSNYGMHWVRQGPGKGLEWVAVISYDASSKYYTDSVQGRFTISRDNSKNTLFLQMNSLRGEDTAVYYCAKALRYLDWFLSDPFDYWGQGTLVTVSS VL: EIVLTQSPGTLSLSPGERATLSCRASQSVSSDFLAWYQQKPGQAPRLLIYGASSRATGIPDRFSGSGSGTDFTLTISRLEPEDFAVYYCQQYAASPPFGQGTRLEIK" value=0%
binder="15D8 (antibody, V domains shown, human IgG mAb; also called 15D8-biotin) VH: EVQLVQSGAEVKKPGESLKISCQASGYSFTNYWIAWVRQMPGKGLEWMGIIYPGDSDIKYSPSFRGQVTISADKSISNAFLQWRSLRASDTAMYYCARHAIRGDGFDYWGQGTLVTVSS VL: SYELTQPPSVSVSPGQTATITCSGDKLGEKYACWYQQKPGQSPVLVMYQDTKRPSGIPERFSGSNSGNTATLTISGTRAMDEADYYCQAWDTNTVIFGGGTKLTVL" value=0%
binder="7B13 (antibody, V domains shown, human IgG mAb) VH: QVQLVESGGGVVQPGGSLRLSCAASGFSFSNYGMHWVRQAPGKGLEWVALIPSDGNYQYYTDSVKGRFTVSRDNSRNTLYLQMKSLRAEDTARYHCAHLGGGLFDFWGQGTLVTVSS VL: QSALNQPRSVSGSPGQSVSISCTGSSSDVGGYEFVSWYQHHPGKAPKLIIYDVDKRPSGVPDRFSGSRSGDTASLTISGLQAEDEADYYCYSSADTWVFGGGTKLTVL" value=100%
binder="3G16 (antibody, V domains shown, human IgG mAb; also called 3G16-biotin) VH: QSALTQPASVSGSPGESITISCTGTISDVGAYNSVSWYQQHSGTAPELIIYDVTNRPAGVSSRFSGSKSGNTASLTISWLQSEDEAEYYCSSYTTSDTYVFGSGTQVTVL V domain: RAQLVQSAAEMKNPGASVKVSCEASGYTFTGYYVHWMRQAPGQGLEWMGWINPMTGATKSPQKFQGRVTMTRDTSTTATHIELTRLRSDDSAVFFCARGGPTSTRITGKRHFDLWGRGTLITVAS" value=0%
binder="9I6 (antibody, V domains shown, human IgG mAb; also called 9I6-biotin; 916) VH: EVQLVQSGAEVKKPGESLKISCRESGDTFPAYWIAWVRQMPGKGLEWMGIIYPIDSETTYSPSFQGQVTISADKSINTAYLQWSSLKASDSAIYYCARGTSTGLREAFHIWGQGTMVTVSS VL: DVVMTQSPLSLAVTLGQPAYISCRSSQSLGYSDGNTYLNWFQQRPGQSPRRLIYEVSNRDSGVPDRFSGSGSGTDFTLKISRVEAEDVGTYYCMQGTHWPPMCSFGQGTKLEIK" value=100%
binder="4N10 (antibody, V domains shown, human IgG mAb; also called 4N10-biotin) VH: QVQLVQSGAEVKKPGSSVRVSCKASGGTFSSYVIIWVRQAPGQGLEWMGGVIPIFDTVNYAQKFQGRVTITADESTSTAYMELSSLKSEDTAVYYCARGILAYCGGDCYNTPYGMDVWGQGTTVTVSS VL: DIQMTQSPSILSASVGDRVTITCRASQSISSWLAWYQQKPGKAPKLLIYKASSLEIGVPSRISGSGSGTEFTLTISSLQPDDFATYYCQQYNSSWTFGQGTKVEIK" value=0%
